test system: PC49; assay: qHTS profiling for inhibitors of Plasmodium falciparum proliferation (AID 504749); further: nearly all actives have a fitted effect of over 60% in size; conditions: P. falciparum in erythrocytes, SYBR Green DNA, 72 h; series mostly up to 12.8 µM
Records with an inconclusive call do not appear. Active and inactive are the calls of the source. The call rests on the fitted dose curve; in most records, active means well fitted inhibition curve with a large enough effect; inconclusive means small, poorly fitted or top-dose-only effect; inactive means flat fitted curve, though single readings scatter.
property label: outcome

INSERT INTO assay_data (compound, meas_value) VALUES
  ('C[C@@H]1O[C@H](O[C@@H]2\C=C/C=C\C=C/C=C\C[C@H](C)OC(=O)/C=C\[C@H]3O[C@@H]3C[C@H](O)C[C@]3(O)C[C@@H](O)[C@@H](C(=O)O)[C@H](C2)O3)[C@@H](O)[C@H](N)[C@@H]1O (stereo in doubt)', 'inactive'),
  ('C#C[C@]1(O)CC[C@@H]2[C@H]3CCC4=CCCC[C@@H]4[C@@H]3CC[C@@]21C', 'inactive'),
  ('CCCC(=O)O[C@]1(C(=O)CO)CCC2[C@@H]3CCC4=CC(=O)CC[C@]4(C)C3C(O)C[C@]21C (stereo partly drawn)', 'inactive');
